- Test system: Kochia Kochia scoparia
- Experiment summary: Post-emergence greenhouse herbicide evaluation, kochia
- Format: in vivo
- Measurement context: 560 g ae/ha, 14 days after application, visual injury 0-100% vs untreated
Test readout: % Control Kochia Kochia scoparia (%)
Entry rule: numbers only, all in %.

Would you please look over these solved cases?
{"columns": ["Compound", "Test readout", "Meas value"],
 "data": [
  ["CCN(CC)CC.O=C(O)COc1nc(Cl)c(Cl)cc1Cl [Triclopyr triethylamine (TEA), Triclopyr triethylamine, reference compound]", "% Control Kochia Kochia scoparia", 93],
  ["CCCCCCCCn1ccnc1.O=C(O)COc1ccc(Cl)cc1Cl", "% Control Kochia Kochia scoparia", 97],
  ["CCCCOCCOC(=O)COc1nc(Cl)c(Cl)cc1Cl [Triclopyr butoxyethylester (BEE), Triclopyr butoxyethylester, reference compound]", "% Control Kochia Kochia scoparia", 95]
]}

// below: % Control Kochia Kochia scoparia requested for another compound
Lookup: Return reported % Control Kochia Kochia scoparia. Input compound: CCCCCCN(C)C.O=C(O)COc1nc(Cl)c(Cl)cc1Cl
Found: 96
